Test system: SK-MEL-28 melanoma
MEASUREMENT NOTES: NCI tumour cell line growth inhibition, 48 h
Listing of recorded TGI by entry.
ASSAY ENDPOINT: TGI (µM)

| COMPOUND | ASSAY ENDPOINT | READING QUALIFIER | MEASUREMENT |
| --- | --- | --- | --- |
| CSc1ccc(/C=C2\N=C(c3ccccc3)N(c3nc4cc(C)c(C)cc4s3)C2=O)cc1 | TGI | > | 100 |
| FC(F)(Sc1ncc[nH]1)c1nc2ccccc2o1 | TGI | > | 100 |
| CC(=O)C1=C(C)N(c2ccc(C)cc2)C2(O)C3=C(C(=O)c4ccccc4C3=O)C(O)=CC12Cl (stereo unspecified) | TGI | = | 79.4 |
| CN(C)c1ccc(/C=C/C2=[N+](C)c3ccccc3C2(C)C)cc1 | TGI | = | 18 |
| COc1cc(-c2[o+]c3cc(O)cc(O)c3cc2O)cc(O)c1O | TGI | > | 100 |
| C1CC[C@H]2SSC3CCCC[C@H]3SSC2C1 (stereo partly specified) | TGI | > | 100 |
| COc1cc(C(=O)N/N=C/c2ccc(N(C)C)cc2)cc(OC)c1OC | TGI | > | 100 |
| CCCCCC/C=C1\CCC(CN2CCOCC2)C1=O (stereo unspecified) | TGI | = | 30.7 |
| COC1(O)c2cccc(Cl)c2C(=O)N1C1(C(N)=O)CCCCC1 (stereo unspecified) | TGI | > | 100 |
| CCCCCCCCCCCCCCCCC(=O)O.CCCCCCCCCCCCCCCCCC(=O)O.CCCCCCCCCCCCCCCCCC(=O)O.CCCCCCCCCCCCCCCCCC(=O)O.CCCCCCCCCCCCCCCCCC(=O)O.CO[CH-]OC12COC1CC(O)C1(C)C(O)C(OC(C)O)C3=C(C)C(OC(=O)C(O)C([NH-])c4ccccc4)CC(O)(C(OC(=O)c4ccccc4)C21)C3(C)C.[Cu+].[Zn].[Zn].[Zn].[Zn].[Zn] (stereo unspecified) | TGI | = | 23.7 |
| CCOC(=O)C(NC(=O)c1ccccc1)(Nc1ccc(Cl)cc1C(F)(F)F)C(F)(F)F (stereo unspecified) | TGI | > | 100 |
| CC(=O)Oc1ccc(/C(=C(\C)c2ccc(Cl)cc2)c2ccc(OCCN3CCCCC3)cc2)cc1 | TGI | = | 3.89 |
| O=C(O)C12CCCCC1CCCC2 (stereo unspecified) | TGI | > | 100 |
| CCN(CC)Cc1c(/C=C\c2cc(OC)c(OC)c(OC)c2)ccc(OC)c1O | TGI | > | 100 |
| COc1ccc(/C=C2\C=C(c3ccccc3)N(CCc3ccccc3)C2=O)cc1OC | TGI | = | 68.1 |
| COC(=O)C1(C(=O)OC)N=C(C)OC1/C=C/c1ccccc1 (stereo unspecified) | TGI | > | 100 |
| COc1ccc(/C=C/C(=O)c2ccc(OC)c(OC)c2)cc1O | TGI | = | 27.4 |
| O=c1ssc(Cl)c1Cl | TGI | > | 10 |
| Cn1c(/C=C/[N+](=O)[O-])cc2ccccc21 | TGI | = | 34.5 |
| Cc1ccc(Cl)c(Nc2ccccc2C(=O)O)c1Cl | TGI | = | 89 |
| COc1ccc(C(=O)/C=C/c2ccc(OCCSCCCCCCCCCCSCCOc3ccc(/C=C/C(=O)c4ccc(OC)c(OC)c4)cc3)cc2)cc1OC | TGI | > | 100 |
